Origin of measurements: PubChem BioAssay AID2060893

# Tested on: K86415-001-R-J1-PDC complex spheroids, viability;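 note: spheroids exposed to agents for seven days before readout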
# test: Anticancer human tumor K86415-001-R-J1-PDC patient-derived lung adenocarcinoma cell line growth inhibition [RAS]
# conditionParameters: compound 0.01 µM; hits give low values
Catalogue of viability, T/C readings, one per entry.

These recorded examples may help you get a feel for the data.
O=C(c1ccc(F)c(F)c1Nc1ccc(I)cc1F)N1CC(O)([C@@H]2CCCCN2)C1 : 90% [middle of 4 runs]
C=CC(=O)Nc1cc(Nc2nccc(-c3cn(C)c4ccccc34)n2)c(OC)cc1N(C)CCN(C)C : 98.8% [middle of 4 runs]
Nc1ccn(C2OC(CO)C(O)C2(F)F)c(=O)n1 (stereo unspecified) : 97.5% [middle of 4 runs]

Input: Query (compound): C=CC(=O)N1CCN(c2nc(OCC3CCCN3C)nc3c(F)c(-c4nc(N)cc(C)c4C(F)(F)F)c(Cl)cc23)C(C)C1 (stereo unspecified) ; field requested: viability, T/C
Output: 13.4% [middle of 12 runs]

Input: Query (compound): `CC(C)n1nc(-c2ccc3oc(N)nc3c2)c2c(N)ncnc21` ; field requested: viability, T/C
Output: 96.1% [middle of 4 runs]

Input: Query (compound): `CCN1CCN(Cc2ccc(Nc3ncc(F)c(-c4cc(F)c5nc(C)n(C(C)C)c5c4)n3)nc2)CC1` ; field requested: viability, T/C
Output: 90.2% [middle of 4 runs]
